Below, each entry is listed alongside its reported T cell proliferative response (HT-2 [3H]TdR uptake) at 188 nM.
target under test: murine class II MHC allele E^k on CH27 B cell lymphoma antigen presenting cells (murine)
procedure text: cell-based or functional assay
Non-standard residues stand in square brackets, D forms with d. Ava = NCCCCC(=O)O

Would you please look over these solved cases?
binder Ac-LRMKLPKSIAYLKQATAK-NH2 [Hybrid 4, Ac-LRMKLPKSIAYLKQATAK-NH2] , T cell proliferative response (HT-2 [3H]TdR uptake) at 188 nM observed: 20.8 thousands of cpm

binder Ac-IAYLKQATAK-NH2 [Hybrid 1, Ac-IAYLKQATAK-NH2 (antigenic epitope PGCC 95-104 without Ii-Key)] , T cell proliferative response (HT-2 [3H]TdR uptake) at 188 nM observed: 32.4 thousands of cpm

binder Ac-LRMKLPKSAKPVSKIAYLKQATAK-NH2 [Hybrid 6, Ac-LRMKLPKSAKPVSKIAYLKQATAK-NH2] , T cell proliferative response (HT-2 [3H]TdR uptake) at 188 nM observed: 26.9 thousands of cpm

binder Ac-LRMK[Ava]IAYLKQATAK-NH2 (SMILES CC[C@H](C)[C@H](NC(=O)CCCCNC(=O)[C@H](CCCCN)NC(=O)[C@H](CCSC)NC(=O)[C@H](CCCNC(=N)N)NC(=O)[C@H](CC(C)C)NC(C)=O)C(=O)N[C@@H](C)C(=O)N[C@@H](Cc1ccc(O)cc1)C(=O)N[C@@H](CC(C)C)C(=O)N[C@@H](CCCCN)C(=O)N[C@@H](CCC(N)=O)C(=O)N[C@@H](C)C(=O)N[C@H](C(=O)N[C@@H](C)C(=O)N[C@@H](CCCCN)C(N)=O)[C@@H](C)O) [Hybrid 2, Ac-LRMK-ava-IAYLKQATAK-NH2] , T cell proliferative response (HT-2 [3H]TdR uptake) at 188 nM observed: 27.2 thousands of cpm

binder Ac-LRMK[Ava][Ava]IAYLKQATAK-NH2 (SMILES CC[C@H](C)[C@H](NC(=O)CCCCNC(=O)CCCCNC(=O)[C@H](CCCCN)NC(=O)[C@H](CCSC)NC(=O)[C@H](CCCNC(=N)N)NC(=O)[C@H](CC(C)C)NC(C)=O)C(=O)N[C@@H](C)C(=O)N[C@@H](Cc1ccc(O)cc1)C(=O)N[C@@H](CC(C)C)C(=O)N[C@@H](CCCCN)C(=O)N[C@@H](CCC(N)=O)C(=O)N[C@@H](C)C(=O)N[C@H](C(=O)N[C@@H](C)C(=O)N[C@@H](CCCCN)C(N)=O)[C@@H](C)O) [Hybrid 3, Ac-LRMK-ava-ava-IAYLKQATAK-NH2] , T cell proliferative response (HT-2 [3H]TdR uptake) at 188 nM observed: 26.2 thousands of cpm

Here is another binder to look at.
binder Ac-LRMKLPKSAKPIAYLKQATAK-NH2 [Hybrid 5, Ac-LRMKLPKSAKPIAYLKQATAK-NH2] , T cell proliferative response (HT-2 [3H]TdR uptake) at 188 nM observed: 29.1 thousands of cpm
